Listing: MIC of selected compounds
# Test system: Staphylococcus aureus
# EXPERIMENTAL PROTOCOL: Antibacterial activity against gentamycin and arbekacin-resistant Staphylococcus aureus MF490 expressing AAD(4'), AAC(6')-APH(2'') enzymes by twofold agar dilution method
# Type: functional
Give a bare numeral; the unit µg/mL is implied.

Study these solved cases before continuing.
• NCCCNC(=O)O[C@@H]1[C@@H](O)[C@H](O[C@H]2O[C@H](CN)CC[C@H]2N)[C@@H](N)C[C@H]1NC(=O)[C@@H](O)CCN = 64
• NCC[C@H](O)C(=O)N[C@@H]1C[C@H](N)[C@@H](O[C@H]2O[C@H](CN)CC[C@H]2N)[C@H](O)[C@H]1O[C@H]1O[C@H](CO)[C@@H](O)[C@H](N)[C@H]1O = 64
• NCC[C@H](O)C(=O)N[C@@H]1C[C@H](N)[C@@H](O[C@H]2O[C@H](CN)CC[C@H]2N)[C@H](O)[C@H]1O = 8

**Q:** Need MIC of NCCNC(=O)O[C@@H]1[C@@H](O)[C@H](O[C@H]2O[C@H](CN)CC[C@H]2N)[C@@H](N)C[C@H]1NC(=O)[C@@H](O)CCN , thanks.
**A:** 32

**Q:** Give its MIC value. Item: NCCCNC(=O)O[C@@H]1[C@@H](O)[C@H](NC(=O)[C@@H](O)CCN)C[C@H](N)[C@H]1O[C@H]1O[C@H](CN)CC[C@H]1N
**A:** 128

**Q:** Query (compound): NCCNC(=O)O[C@@H]1[C@@H](O)[C@H](NC(=O)[C@@H](O)CCN)C[C@H](N)[C@H]1O[C@H]1O[C@H](CN)CC[C@H]1N ; field requested: MIC
**A:** 8

---

# Test system: Staphylococcus aureus
# EXPERIMENTAL PROTOCOL: Antibacterial activity against gentamycin and arbekacin-resistant Staphylococcus aureus MF490 expressing AAD(4'), AAC(6')-APH(2'') enzymes by twofold agar dilution method
# Type: functional
MEASURE: MIC

Some entries whose results are on file:
* CN[C@@H]1[C@@H](O)[C@@H](O[C@@H]2[C@@H](O)[C@H](O[C@H]3O[C@H](C(C)N)CC[C@H]3N)[C@@H](N)C[C@H]2N)OC[C@]1(C)O (stereo partly drawn) | > 128 µg/mL
* CN[C@@H]1[C@@H](O)[C@@H](O[C@@H]2[C@@H](O)[C@H](O[C@H]3O[C@H]([C@@H](C)NC)CC[C@H]3N)[C@@H](N)C[C@H]2N)OC[C@]1(C)O | > 128 µg/mL

**Q:** Which MIC is reported for this molecule? NC[C@@H]1CC[C@@H](N)[C@@H](O[C@H]2[C@H](O)[C@@H](O)[C@H](N)C[C@@H]2N)O1
**A:** > 128 µg/mL
